pIC50: −log10 of the molar value.
For human 5-HT1A receptors (Homo sapiens), measured pIC50 is reported for the entries below.
Measurement Kind: pIC50

[[record]]
smiles_text = "Cc1ccc2[nH]cc(CCCN3CCN(c4ccccc4Oc4cccc(N(C)C)c4)CC3)c2c1"
measurement_kind = "pIC50"
observed_value = 8.00

[[record]]
smiles_text = "CCOc1cccc(Oc2ccccc2N2CCN(CCCc3c[nH]c4ccc(C)cc34)CC2)c1"
measurement_kind = "pIC50"
observed_value = 7.55

[[record]]
smiles_text = "Fc1ccc2[nH]cc(CCCN3CCN(c4ccccc4Oc4cccc(N5CCOCC5)c4)CC3)c2c1"
measurement_kind = "pIC50"
observed_value = 7.59

[[record]]
smiles_text = "Fc1ccc2[nH]cc(CCCN3CCN(c4ccccc4Oc4ccccc4)CC3)c2c1"
measurement_kind = "pIC50"
observed_value = 8.00

[[record]]
smiles_text = "COc1ccccc1Oc1ccccc1N1CCN(CCCc2c[nH]c3ccc(F)cc23)CC1"
measurement_kind = "pIC50"
observed_value = 7.89

[[record]]
smiles_text = "Fc1ccc2[nH]cc(CCCN3CCN(c4ccccc4Oc4cccc5c4OCCO5)CC3)c2c1"
measurement_kind = "pIC50"
observed_value = 7.72


###

# Target Entity: 3H-5-HT uptake into whole rat brain synaptosomes (serotonin reuptake) (Rattus norvegicus)
# Construct: whole rat brain synaptosomes
# Sequence (P31652 whole entry): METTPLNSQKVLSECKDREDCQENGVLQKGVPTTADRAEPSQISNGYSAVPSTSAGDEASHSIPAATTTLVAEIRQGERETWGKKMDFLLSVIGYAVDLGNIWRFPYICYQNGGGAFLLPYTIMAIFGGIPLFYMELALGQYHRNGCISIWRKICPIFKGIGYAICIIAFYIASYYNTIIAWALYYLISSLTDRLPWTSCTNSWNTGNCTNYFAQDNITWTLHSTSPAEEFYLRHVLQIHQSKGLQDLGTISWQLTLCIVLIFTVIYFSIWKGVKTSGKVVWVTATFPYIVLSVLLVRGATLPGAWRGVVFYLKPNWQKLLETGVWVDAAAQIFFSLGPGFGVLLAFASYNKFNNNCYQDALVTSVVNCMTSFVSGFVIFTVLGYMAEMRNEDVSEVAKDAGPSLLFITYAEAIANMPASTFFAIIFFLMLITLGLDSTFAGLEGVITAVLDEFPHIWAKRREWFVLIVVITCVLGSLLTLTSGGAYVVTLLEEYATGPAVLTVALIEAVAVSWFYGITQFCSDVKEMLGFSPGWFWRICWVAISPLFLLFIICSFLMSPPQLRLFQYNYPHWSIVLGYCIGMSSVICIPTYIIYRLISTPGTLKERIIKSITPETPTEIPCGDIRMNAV
# Method Notes: Inhibition of 3H-5-HT uptake into rat brain synaptosomes
# Experimental Setup: in vitro
IC50 values, listed per item
Measurement Kind: IC50

[[record]]
smiles_text = "c1ccc(Oc2ccccc2N2CCN(CCCc3c[nH]c4ccccc34)CC2)cc1"
observed_value = "13 nM"

[[record]]
smiles_text = "Fc1ccc2[nH]cc(CCCN3CCN(c4ccccc4Oc4cccc(N5CCOCC5)c4)CC3)c2c1"
observed_value = "23 nM"

[[record]]
smiles_text = "c1ccc(N2CCN(CCc3c[nH]c4ccccc34)CC2)c(Oc2ccc3c(c2)OCO3)c1"
observed_value = "130 nM"

[[record]]
smiles_text = "c1ccc(N2CCN(CCCc3c[nH]c4ccccc34)CC2)c(Oc2ccc3c(c2)OCO3)c1"
observed_value = "2.8 nM"


###

// melting point lookup, one value per entry
Counter-ions that a name gives are not always drawn.
Measurement Kind: melting point

[[record]]
molecule = "c1ccc(N2CCN(CCc3c[nH]c4ccccc34)CC2)c(Oc2ccc3c(c2)OCO3)c1 (as salt: oxalate)"
observed_value = "221 to 228 °C"

[[record]]
molecule = "c1ccc(N2CCN(CCCc3c[nH]c4ccccc34)CC2)c(Oc2ccc3c(c2)OCO3)c1 (as salt: oxalate)"
observed_value = "156 to 162 °C"

[[record]]
molecule = "COc1ccccc1Oc1ccccc1N1CCN(CCCc2c[nH]c3ccc(F)cc23)CC1 (as salt: hydrochloride)"
observed_value = "183 to 189 °C"

[[record]]
molecule = "Clc1ccc2c(CCCN3CCN(c4ccccc4Oc4ccc5c(c4)OCO5)CC3)c[nH]c2c1 (as salt: hydrochloride)"
observed_value = "165 °C (dec.)"


###

# Target Entity: 3H-5-HT uptake into whole rat brain synaptosomes (serotonin reuptake) (Rattus norvegicus)
# Construct: whole rat brain synaptosomes; from tissue; host or cells: whole rat brain synaptosomes
# Method Notes: Inhibition of 3H-5-HT uptake into rat brain synaptosomes
# Format: biochemical
# Experimental Setup: at 100 nM
// reported inhibition at 0.1 µM per item
Measurement Kind: inhibition at 0.1 µM

[[record]]
molecule = "Clc1ccc2c(CCN3CCN(c4ccccc4Oc4ccc5c(c4)OCO5)CC3)c[nH]c2c1 [Compound 3e]"
target_entity = "3H-5-HT uptake into whole rat brain synaptosomes (serotonin reuptake) (Rattus norvegicus)"
observed_value = "40%"

[[record]]
molecule = "Cc1ccc2[nH]cc(CCCN3CCN(c4ccccc4Oc4cccc(N(C)C)c4)CC3)c2c1 [Compound 5i]"
target_entity = "3H-5-HT uptake into whole rat brain synaptosomes (serotonin reuptake) (Rattus norvegicus)"
observed_value = "46%"

[[record]]
molecule = "CCOc1cccc(Oc2ccccc2N2CCN(CCCc3c[nH]c4ccc(C)cc34)CC2)c1 [Compound 5ai]"
target_entity = "3H-5-HT uptake into whole rat brain synaptosomes (serotonin reuptake) (Rattus norvegicus)"
observed_value = "34%"

[[record]]
molecule = "c1ccc(N2CCN(CCCc3c[nH]c4ccccc34)CC2)c(Oc2cccc3c2OCCO3)c1 [Compound 5ae]"
target_entity = "3H-5-HT uptake into whole rat brain synaptosomes (serotonin reuptake) (Rattus norvegicus)"
observed_value = "42%"

[[record]]
molecule = "COc1cccc(OC)c1Oc1ccccc1N1CCN(CCCc2c[nH]c3ccc(Br)cc23)CC1 [Compound 5h]"
target_entity = "3H-5-HT uptake into whole rat brain synaptosomes (serotonin reuptake) (Rattus norvegicus)"
observed_value = "55%"

[[record]]
molecule = "c1ccc(N2CCN(CCCCc3c[nH]c4ccccc34)CC2)c(Oc2ccc3c(c2)OCO3)c1 [Compound 3c]"
target_entity = "3H-5-HT uptake into whole rat brain synaptosomes (serotonin reuptake) (Rattus norvegicus)"
observed_value = "27%"

